Attribution: ChEMBL document CHEMBL1201862

system_name: Cytochrome P450 2C9 (Homo sapiens)
Sequence (P11712 whole entry): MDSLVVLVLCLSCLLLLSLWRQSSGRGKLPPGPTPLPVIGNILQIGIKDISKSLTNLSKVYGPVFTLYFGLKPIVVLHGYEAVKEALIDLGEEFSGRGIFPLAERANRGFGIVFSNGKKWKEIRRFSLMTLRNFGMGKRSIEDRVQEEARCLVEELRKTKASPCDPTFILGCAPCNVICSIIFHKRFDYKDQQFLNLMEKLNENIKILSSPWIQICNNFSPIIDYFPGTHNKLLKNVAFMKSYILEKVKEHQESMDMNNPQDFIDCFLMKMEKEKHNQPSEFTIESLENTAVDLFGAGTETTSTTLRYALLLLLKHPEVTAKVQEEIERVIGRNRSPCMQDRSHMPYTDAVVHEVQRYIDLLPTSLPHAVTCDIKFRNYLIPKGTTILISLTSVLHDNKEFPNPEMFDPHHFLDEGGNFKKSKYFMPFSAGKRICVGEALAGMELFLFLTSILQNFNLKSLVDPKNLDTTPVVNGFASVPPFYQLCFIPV
Below is a list of entries, each paired with its recorded AC50 value.

Here's what some known entries look like.
O=C(/C=C\NCC(=O)c1ccccc1)c1ccccc1	1.78 µM (inconclusive)
C[C@@]12CC[C@H]3[C@@H](CC[C@@H]4C[C@H](O)CC[C@]43C)[C@H]1CC[C@H]2O	25.1 µM (inconclusive)
N=C(N)SCc1ccc(Cl)cc1Cl.O=[N+]([O-])c1c(O)c(Cl)cc(Cl)c1Cl	7.94 µM (inconclusive)
COC(=O)C1CC1C(NC(=O)[C@H]1CCCCN1)c1ccccc1 (stereo not given in full)	20 µM (inconclusive)

Now for a further compound.
(Q) State its AC50 on Cytochrome P450 2C9 (Homo sapiens): CCCN(C/C=C\I)[C@@H]1CCc2ccc(O)cc2C1
(A) 25.1 µM (inconclusive)
